# testTarget: recombinant guanylate cyclase reporter cell line (Rattus norvegicus, UniProt P19686+P20595)
# Construct: expressed in transfected cells
# Sequence (P19686 whole entry): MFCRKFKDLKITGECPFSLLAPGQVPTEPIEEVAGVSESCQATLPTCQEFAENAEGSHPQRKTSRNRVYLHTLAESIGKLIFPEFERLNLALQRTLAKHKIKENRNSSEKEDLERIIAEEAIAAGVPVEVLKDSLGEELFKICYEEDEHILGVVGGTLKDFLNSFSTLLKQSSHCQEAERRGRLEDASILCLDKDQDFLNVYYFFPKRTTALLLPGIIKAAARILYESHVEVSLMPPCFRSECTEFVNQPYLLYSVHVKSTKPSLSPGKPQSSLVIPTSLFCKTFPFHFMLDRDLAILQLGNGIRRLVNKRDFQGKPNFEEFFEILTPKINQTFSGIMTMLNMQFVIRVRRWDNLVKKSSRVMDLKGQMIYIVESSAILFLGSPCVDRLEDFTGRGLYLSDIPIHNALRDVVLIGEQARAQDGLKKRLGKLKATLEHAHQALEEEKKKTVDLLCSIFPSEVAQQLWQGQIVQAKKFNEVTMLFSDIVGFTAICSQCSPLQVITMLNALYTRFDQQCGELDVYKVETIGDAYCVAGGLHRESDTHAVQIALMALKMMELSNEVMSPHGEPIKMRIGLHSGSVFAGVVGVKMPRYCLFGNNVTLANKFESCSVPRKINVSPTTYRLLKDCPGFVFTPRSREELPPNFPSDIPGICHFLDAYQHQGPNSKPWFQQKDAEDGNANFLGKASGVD
# Sequence (P20595 whole entry): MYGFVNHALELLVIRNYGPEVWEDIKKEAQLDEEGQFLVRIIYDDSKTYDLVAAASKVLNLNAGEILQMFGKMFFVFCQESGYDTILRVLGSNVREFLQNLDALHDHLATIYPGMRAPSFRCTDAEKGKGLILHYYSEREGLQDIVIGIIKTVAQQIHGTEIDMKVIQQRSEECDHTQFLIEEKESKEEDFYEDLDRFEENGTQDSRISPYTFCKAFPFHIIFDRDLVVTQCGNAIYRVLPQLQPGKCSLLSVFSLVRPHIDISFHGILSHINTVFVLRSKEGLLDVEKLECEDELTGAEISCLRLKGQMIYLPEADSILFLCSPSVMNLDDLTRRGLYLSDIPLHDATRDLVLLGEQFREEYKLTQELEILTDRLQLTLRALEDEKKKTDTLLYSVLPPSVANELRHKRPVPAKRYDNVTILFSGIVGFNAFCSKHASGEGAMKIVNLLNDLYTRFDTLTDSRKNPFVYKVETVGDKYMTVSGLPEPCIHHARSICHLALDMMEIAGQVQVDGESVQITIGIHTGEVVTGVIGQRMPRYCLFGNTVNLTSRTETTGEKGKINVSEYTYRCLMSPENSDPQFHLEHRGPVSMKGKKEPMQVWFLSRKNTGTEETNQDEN
# test: Effect on a recombinant guanylate cyclase reporter cell line (B-2)
# Type: cell-based
# statedConditions: in some cases mean values for individual determinations
Where a name gives a salt, the structure may show the parent alone.
Simple rule here: MEC (minimum effective concentration) less than 1 µM is satisfied, otherwise not satisfied.

Identify whether the compound Cc1cc(OCc2c(F)cccc2F)n2nc(C)c(C(=O)NNC3CCCC3O)c2c1 (stereo not drawn) [Example 68, trifluoroacetate] records MEC (minimum effective concentration) below 1 µM.
not satisfied

Identify whether the compound COc1ccc(CC(C)(N)CNC(=O)c2c(C)nn3c(OCc4c(F)cccc4F)cc(C)cc23)cc1 (racemic) records MEC (minimum effective concentration) below 1 µM.
satisfied

Identify whether the compound `Cc1cc(OCc2c(F)cccc2F)n2nc(C)c(C(=O)NCC(=O)NC3CC3)c2c1` records MEC (minimum effective concentration) below 1 µM.
not satisfied

Identify whether the compound Cc1cc(OCc2c(F)cccc2F)n2nc(C)c(C(=O)NC3CCCc4cc(F)ccc43)c2c1 (racemic) records MEC (minimum effective concentration) below 1 µM.
satisfied

Identify whether the compound Cc1cc(OCc2c(F)cccc2F)n2nc(C)c(C(=O)NCC(N)c3cnn(C)c3)c2c1 (racemic) records MEC (minimum effective concentration) below 1 µM.
not satisfied

Identify whether the compound CCCC(C)(N)CNC(=O)c1c(C(F)(F)F)nn2c(OCc3c(F)cccc3F)cc(C)cc12 (single isomer, unassigned) records MEC (minimum effective concentration) below 1 µM.
satisfied

Identify whether the compound `Cc1cc(OCc2c(F)cccc2F)n2nc(C)c(C(=O)N[C@H]3C[C@H]4CN(C)CCN4C3)c2c1` records MEC (minimum effective concentration) below 1 µM.
not satisfied

Identify whether the compound Cc1cc(OCc2c(F)cccc2F)n2nc(C)c(C(=O)NCC(N)c3cccc(C(F)(F)F)c3)c2c1 (racemic) records MEC (minimum effective concentration) below 1 µM.
not satisfied

Identify whether the compound Cc1cc(OCc2c(F)cccc2F)n2nc(C)c(C(=O)NC3CC[C@@H]4NCC[C@H]34)c2c1 (relative stereo) records MEC (minimum effective concentration) below 1 µM.
not satisfied

Identify whether the compound `Cc1cc(OCc2c(F)cccc2F)n2nc(C)c(C(=O)NCC3(N)CCCCC3)c2c1` records MEC (minimum effective concentration) below 1 µM.
satisfied

Identify whether the compound `Cc1cc(OCc2c(F)cccc2F)n2nc(C)c(C(=O)N[C@@H](CC(=O)O)CC(C)C)c2c1` records MEC (minimum effective concentration) below 1 µM.
not satisfied

Source of measurements: patent US9422285B2
